Data origin, for the record: patent US5441941A

- Tested on: COLO 205
- test-name: NCI in vitro screen, SRB percent growth, Colon Cancer
- measurement-conditions: read-out: LC-50; PG=-50
measurement-label: CC50 (µM)
One number for each entry, in µM.

Problem: // CC50 lookup, key: "COc1ccc2[nH]c3c(C)c4c(c(C)c3c2c1)CN(C)C=C4"
Result: 37.1

* * *

Kindly state CC50 for each of the entries shown.
- Test system: K-562
- test-name: NCI in vitro screen, SRB percent growth, Leukemia
- measurement-conditions: read-out: LC-50; PG=-50

Problem: // CC50 lookup, key: "Cc1ccc2[nH]c3c(C)c4c(c(C)c3c2c1)CN(C)C=C4"
Result: > 100 µM

Continue with the next compound.
Problem: // CC50 lookup, key: "COc1ccc2[nH]c3c(C)c4c(c(C)c3c2c1)CN(C)C=C4"
Result: > 100 µM

* * *

- System: SN12C
- test-name: NCI in vitro screen, SRB percent growth, Renal Cancer
- measurement-conditions: read-out: LC-50; PG=-50
measurement-label: CC50 (nM)
One number for each entry, in nM.

Problem: // CC50 lookup, key: "Cc1ccc2[nH]c3c(C)c4c(c(C)c3c2c1)CN(C)C=C4"
Result: 2650

* * *

- System: OVCAR-8
- test-name: NCI in vitro screen, SRB percent growth, Ovarian Cancer
- measurement-conditions: read-out: LC-50; PG=-50
measurement-label: CC50 (µM)
Give bare numbers, in µM.

Problem: Under OVCAR-8: CC50 value of "Cc1ccc2[nH]c3c(C)c4c(c(C)c3c2c1)CN(C)C=C4" ?
Result: 31.8

* * *

- System: CCRF-CEM
- test-name: NCI in vitro screen, SRB percent growth, Leukemia
- measurement-conditions: read-out: LC-50; PG=-50
measurement-label: CC50

Problem: // CC50 lookup, key: "COc1ccc2[nH]c3c(C)c4c(c(C)c3c2c1)CN(C)C=C4"
Result: > 100 µM

Continue with the next molecule.
Problem: // CC50 lookup, key: "Cc1ccc2[nH]c3c(C)c4c(c(C)c3c2c1)CN(C)C=C4"
Result: > 100 µM

* * *

- System: LOX IMVI
- test-name: NCI in vitro screen, SRB percent growth, Melanoma
- measurement-conditions: read-out: LC-50; PG=-50
measurement-label: CC50 (µM)
Numbers only, in µM.

Problem: // CC50 lookup, key: "Cc1ccc2[nH]c3c(C)c4c(c(C)c3c2c1)CN(C)C=C4"
Result: 51.4

* * *

- System: OVCAR-4
- test-name: NCI in vitro screen, SRB percent growth, Ovarian Cancer
- measurement-conditions: read-out: LC-50; PG=-50
measurement-label: CC50 (µM)
Give bare numbers, in µM.

Problem: // CC50 lookup, key: "Cc1ccc2[nH]c3c(C)c4c(c(C)c3c2c1)CN(C)C=C4"
Result: 36.3

* * *

- System: A549/ATCC
- test-name: NCI in vitro screen, SRB percent growth, Non-Small Cell Lung Cancer
- measurement-conditions: read-out: LC-50; PG=-50
measurement-label: CC50 (µM)
Give bare numbers, in µM.

Problem: // CC50 lookup, key: Cc1ccc2[nH]c3c(C)c4c(c(C)c3c2c1)CN(C)C=C4 [Formula XI]
Result: 48.5

* * *

- System: SF-268
- test-name: NCI in vitro screen, SRB percent growth, CNS Cancer
- measurement-conditions: read-out: LC-50; PG=-50
measurement-label: CC50 (µM)
Answers are plain numbers, in µM.

Problem: // CC50 lookup, key: "Cc1ccc2[nH]c3c(C)c4c(c(C)c3c2c1)CN(C)C=C4"
Result: 1.6

Continue with the next compound.
Problem: // CC50 lookup, key: "COc1ccc2[nH]c3c(C)c4c(c(C)c3c2c1)CN(C)C=C4"
Result: 35
